target: Protein arginine N-methyltransferase 5 (Homo sapiens); assay: Inhibition of PRMT5 in human Z138 cells assessed as decrease in di-methyl arginine levels after 96 hrs by Western blot method
Sequence (O14744 whole entry): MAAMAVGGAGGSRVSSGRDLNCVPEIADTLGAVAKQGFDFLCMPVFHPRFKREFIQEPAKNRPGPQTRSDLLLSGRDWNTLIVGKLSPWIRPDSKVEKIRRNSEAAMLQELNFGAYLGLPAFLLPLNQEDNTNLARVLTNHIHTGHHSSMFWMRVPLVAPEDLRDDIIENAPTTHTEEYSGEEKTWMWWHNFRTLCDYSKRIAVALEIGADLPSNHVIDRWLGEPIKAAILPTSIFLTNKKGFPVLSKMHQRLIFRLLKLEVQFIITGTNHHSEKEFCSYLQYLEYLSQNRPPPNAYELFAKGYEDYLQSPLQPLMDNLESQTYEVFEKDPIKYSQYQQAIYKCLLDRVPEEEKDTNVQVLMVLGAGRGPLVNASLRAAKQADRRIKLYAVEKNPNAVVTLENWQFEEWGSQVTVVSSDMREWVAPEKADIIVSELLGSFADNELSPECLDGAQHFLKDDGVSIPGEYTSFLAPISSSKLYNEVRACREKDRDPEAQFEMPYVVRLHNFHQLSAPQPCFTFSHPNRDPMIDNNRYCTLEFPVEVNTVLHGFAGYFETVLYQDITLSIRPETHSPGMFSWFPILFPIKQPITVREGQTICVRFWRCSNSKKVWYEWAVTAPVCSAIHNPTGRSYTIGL
Recorded EC50 by entry
recorded_metric: EC50

O=C(COc1cccc(CN2CCOCC2)c1)NCC(O)CN1CCc2ccccc2C1 (stereo not given) : < 0.1 µM
NC(=O)c1ccccc1OCC(=O)NCC(O)CN1CCc2ccccc2C1 (stereo not given) : 0.101 to 1 µM
OC(CNc1cc(-c2ccc3ncn(C4COC4)c3c2)ccn1)CN1CCc2ccccc2C1 (stereo not given) : 0.101 to 1 µM
N#Cc1cccc(-c2cccc(OCC(O)CN3CCc4ccccc4C3)c2)c1 (stereo not given) : 1 to 10 µM
COc1cccc(-c2cccc(OCC(O)CN3CCc4ccccc4C3)c2)c1 (stereo not given) : 1 to 10 µM
OC(COc1cccc(-c2ccccc2Cl)c1)CN1CCc2ccccc2C1 (stereo not given) : 1 to 10 µM
N#Cc1cccc(OCC(=O)NCC(O)CN2CCc3ccccc3C2)c1 (stereo not given) : 0.101 to 1 µM
C[C@H](Oc1cccc2cccnc12)C(=O)NC[C@@H](O)CN1Cc2ccccc2C1 : 0.101 to 1 µM
CN1CCC(n2cnc3ccc(-c4cccc(OCC(O)CN5CCc6ccccc6C5)c4)cc32)CC1 (stereo not given) : 0.101 to 1 µM
CC(Oc1ccccc1)C(=O)NCC(O)CN1CCc2ccccc2C1 (stereo not given) : 0.101 to 1 µM

Origin of values: ChEMBL document CHEMBL3879915
